# TESTED ON: SARS-CoV2 Mpro (Severe acute respiratory syndrome coronavirus 2 (2019-nCoV) (SARS-CoV-2), UniProt P0DTD1)
pIC50: −log10 of the molar value.
MEASUREMENT NAME: pIC50

Look up pIC50 of COc1cccc2[nH]c(C(=O)N3Cc4ccccc4C3C(=O)N[C@H](C#N)C[C@@H]3CCNC3=O)cc12 (single isomer, unassigned) [429A (Isomer 1)] and report it. 4.52 to 5.00

Look up pIC50 of COc1ccc(Cl)c2[nH]c(C(=O)N3CC4(CCCCC4)CC3C(=O)N[C@H](C#N)C[C@@H]3CCNC3=O)cc12 (single isomer, unassigned) [882 (Isomer 2)] and report it. 4.52 to 5.00

Look up pIC50 of CC(C)(C)OC(=O)N1CCCCC12CCN(C(CC1CC1)C(=O)N[C@H](C#N)C[C@@H]1CCNC1=O)C2=O (single isomer, unassigned) [473 (Isomer 1)] and report it. < 4.52

Look up pIC50 of COc1cc(Cl)c2[nH]c(C(=O)N3CC4(CCCCC4)CC3C(=O)N[C@H](C#N)C[C@@H]3CCCNC3=O)cc2c1 (single isomer, unassigned) [1147A (Isomer 1)] and report it. > 5.70

Look up pIC50 of COc1cccc2[nH]c(C(=O)N[C@@H](CC3CC3)C(=O)N[C@@]3(C#N)C[C@@H]4CC[C@H]3[C@@H]3C(=O)NC(=O)[C@H]43)cc12 (single isomer, unassigned) [489 (Isomer 2)] and report it. < 4.52
